# TARGET_OF_ASSAY: human D3 dopamine receptor (Homo sapiens, UniProt P35462)
# Construct: expressed in transfected cells
# Sequence (P35462 whole entry): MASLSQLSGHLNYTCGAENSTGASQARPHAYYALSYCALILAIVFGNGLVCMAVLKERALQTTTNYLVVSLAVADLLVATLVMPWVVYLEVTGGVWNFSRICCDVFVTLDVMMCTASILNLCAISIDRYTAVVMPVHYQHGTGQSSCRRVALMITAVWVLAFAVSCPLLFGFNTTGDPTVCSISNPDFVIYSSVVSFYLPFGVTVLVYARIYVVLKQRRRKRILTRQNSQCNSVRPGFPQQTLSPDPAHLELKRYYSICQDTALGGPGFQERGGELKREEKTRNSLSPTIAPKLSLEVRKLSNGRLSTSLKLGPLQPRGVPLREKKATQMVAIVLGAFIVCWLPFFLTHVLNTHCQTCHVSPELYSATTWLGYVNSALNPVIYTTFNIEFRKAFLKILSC
# TEST_PROTOCOL: Binding in cloned human D3 receptors in HEK cells
# REPORTED_CONDITIONS: cloned human D3 receptors in HEK cells; 125I-IABN; read-out: D3 binding data
Hi there, I'd appreciate the recorded pKi for every entry that follows.
Here pKi is given on a logarithmic scale as minus log10 of the concentration in mol/L.

[ask] Given O=C(NC/C=C/CN1CCN(c2cccc(Cl)c2Cl)CC1)c1cccc(Cl)c1 [EEC 063] , respond with its pKi.
[reply] 8.68

[ask] Given O=C(NCC#CCN1CCN(c2cccc(Cl)c2Cl)CC1)c1ccccc1 [JJC 2-062] , respond with its pKi.
[reply] 6.90

[ask] Given O=C(NC/C=C/CN1CCN(c2cccc(Cl)c2Cl)CC1)c1ccc([N+](=O)[O-])cc1 [EEC 027] , respond with its pKi.
[reply] 9.22

[ask] Given O=C(NCC#CCN1CCN(c2cccc(Cl)c2Cl)CC1)c1cccc2c1-c1ccccc1C2 [JJC 2-077] , respond with its pKi.
[reply] 6.50

[ask] Given O=C(NCC#CCN1CCN(c2cccc(Cl)c2Cl)CC1)c1ccc2c(c1)Cc1ccccc1-2 [JJC 2-078] , respond with its pKi.
[reply] 7.38

[ask] Given O=C(NC/C=C/CN1CCN(c2cccc(Cl)c2Cl)CC1)c1ccc2c(c1)Cc1ccccc1-2 [JJC 2-071] , respond with its pKi.
[reply] 8.47

[ask] Given COc1cccc(C(=O)NC/C=C/CN2CCN(c3cccc(Cl)c3Cl)CC2)c1 [EEC 069] , respond with its pKi.
[reply] 8.40

[ask] Given O=C(NC/C=C/CN1CCN(c2cccc(Cl)c2Cl)CC1)c1cccc(I)c1 [EEC 019] , respond with its pKi.
[reply] 8.41

[ask] Given O=C(NC/C=C\CN1CCN(c2cccc(Cl)c2Cl)CC1)c1ccc2c(c1)Cc1ccccc1-2 [JJC 2-085] , respond with its pKi.
[reply] 8.42

[ask] Given Nc1ccccc1C(=O)NC/C=C/CN1CCN(c2cccc(Cl)c2Cl)CC1 [PG01038] , respond with its pKi.
[reply] 8.57

[ask] Given O=C(NC/C=C/CN1CCN(c2cccc(Cl)c2Cl)CC1)c1ccc(Cl)cc1 [PG01007] , respond with its pKi.
[reply] 8.80

[ask] Given O=C(NCC=CCN1CCN(c2cccc(Cl)c2Cl)CC1)c1ccc(I)cc1 [EEC 017] , respond with its pKi.
[reply] 8.38

[ask] Given O=C(NC/C=C/CN1CCN(c2cccc(Cl)c2Cl)CC1)c1ccccc1 [JJC 2-068] , respond with its pKi.
[reply] 9.22

###

# TARGET_OF_ASSAY: D4.4 form of the human D4 dopamine receptor (Homo sapiens)
# Sequence (P21917 whole entry): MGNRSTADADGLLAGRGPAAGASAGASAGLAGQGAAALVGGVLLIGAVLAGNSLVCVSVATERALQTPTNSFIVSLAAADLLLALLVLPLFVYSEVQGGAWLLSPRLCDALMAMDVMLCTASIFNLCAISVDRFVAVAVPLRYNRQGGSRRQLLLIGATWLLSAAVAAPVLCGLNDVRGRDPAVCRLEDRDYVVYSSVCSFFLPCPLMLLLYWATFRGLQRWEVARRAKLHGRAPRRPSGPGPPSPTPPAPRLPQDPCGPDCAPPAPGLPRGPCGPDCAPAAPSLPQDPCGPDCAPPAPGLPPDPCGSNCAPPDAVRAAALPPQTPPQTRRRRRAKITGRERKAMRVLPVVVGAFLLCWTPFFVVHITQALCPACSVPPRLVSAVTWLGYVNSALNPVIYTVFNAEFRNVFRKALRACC
# TEST_PROTOCOL: Binding in cloned human D4 receptors in HEK cells
# REPORTED_CONDITIONS: cloned human D4.4 receptors in HEK 293 cells
REPORTED_METRIC: Ki
Mention the unit after the number when you answer.

[ask] Given O=C(NCC=CCN1CCN(c2cccc(Cl)c2Cl)CC1)c1ccc(O)cc1 [PG01015] , respond with its Ki.
[reply] 356 nM

[ask] Given O=C(NC/C=C/CN1CCN(c2cccc(Cl)c2Cl)CC1)c1ccc(-c2cccnc2)cc1 [PG01041] , respond with its Ki.
[reply] 486 nM

[ask] Given O=C(NC/C=C/CN1CCN(c2cccc(Cl)c2Cl)CC1)c1ccc([N+](=O)[O-])cc1 [EEC 027] , respond with its Ki.
[reply] 461 nM

[ask] Given O=C(NC/C=C/CN1CCN(c2cccc(Cl)c2Cl)CC1)c1cnc2ccccc2n1 [PG01020] , respond with its Ki.
[reply] 1110 nM

[ask] Given O=C(NC/C=C/CN1CCN(c2cccc(Cl)c2Cl)CC1)c1ccc(-c2ccccn2)cc1 [PG01037] , respond with its Ki.
[reply] 505 nM

Measured values drawn from patent US8119642B2 for this set.
